Data origin: the supplement of paper PMC11577813

system: (+)-isopinocamphone A-neuron OSN class; assay: net action potential response of A-neuron (blank-subtracted) (spikes/s (Hz)); higher = stronger excitation; conditions: 10 µg on filter paper; neuron: A neuron (large spike amplitude)
Class 1: net action potential response at least 1. Class 0: net action potential response below 1.

Solved entries:
compound	class
CC1=CC(C)(C)C=C(O)C1=O	1
C=CC(O)CCCCC (racemic) [(±)-1-Octen-3-ol]	0
CCc1ccc(O)c(OC)c1	0
CC[C@H]1O[C@]2(C)CCC[C@H]1O2 (racemic) [(±)-exo-Brevicomin]	0

Query :: Check this compound for net action potential response at or above 1: CCC1CCC2(CCCO2)O1 (racemic) [(±)-Chalcogran]
Result :: 0

Query :: Check this compound for net action potential response at or above 1: CCCCCC=O
Result :: 1

Query :: Check this compound for net action potential response at or above 1: CC/C=C\CCO
Result :: 1

Query :: Check this compound for net action potential response at or above 1: CCC/C=C\CO
Result :: 1

Query :: Check this compound for net action potential response at or above 1: C=CCc1ccc(OC)c(OC)c1
Result :: 0

Query :: Check this compound for net action potential response at or above 1: C=C(C)C1CC=C(C)C(=O)C1 (racemic) [(±)-Carvone]
Result :: 0

Query :: Check this compound for net action potential response at or above 1: CC12CCC(CC1)C(C)(C)O2
Result :: 0

----------
test system: myrcene A-neuron OSN class; experiment: net action potential response of A-neuron (blank-subtracted) (spikes/s (Hz)); higher = stronger excitation; details: 10 µg on filter paper; neuron: A neuron (large spike amplitude)
reported metric: net action potential response
Please state the value as a number alone, without comment.

These recorded examples may help you get a feel for the data.
compound	test result
C=C1CCC2(C(C)C)CC12 (racemic) [(±)-Sabinene]	34
OCCc1ccccc1	0
CCCCCCO	4
C[C@H]1C(=O)C[C@H]2C[C@@H]1C2(C)C [(-)-Pinocamphone]	0
CC[C@H]1O[C@]2(C)CCC[C@H]1O2 (racemic) [(±)-exo-Brevicomin]	6

Shifting focus to the compound that follows.
For record CC/C=C\CCO the listed net action potential response is 6

----------
test system: (4S)-cis-verbenol A-neuron OSN class; test: net action potential response of A-neuron (blank-subtracted) (spikes/s (Hz)); higher = stronger excitation; conditions: 10 µg on filter paper; neuron: A neuron (large spike amplitude)
reported metric: net action potential response

compound	reported metric	test result
COc1ccc(C)cc1OC	net action potential response	-2.67
CC(=O)OCCC(C)C [3-Methylbutyl acetate]	net action potential response	-4
CC(C)[C@@]12CC[C@@](C)(O)[C@@H]1C2 [(+)-trans-4-Thujanol]	net action potential response	-0.667
CCc1ccc(O)c(OC)c1	net action potential response	2

Shifting focus to the compound that follows.
For record C=C(C)[C@@H]1CC=C(C)CC1 [(-)-Limonene] the listed net action potential response is 0.667

----------
List of net action potential response values.
system: (+)-trans-4-thujanol A-neuron OSN class; test: net action potential response of A-neuron (blank-subtracted) (spikes/s (Hz)); higher = stronger excitation; conditions: 10 µg on filter paper; neuron: A neuron (large spike amplitude)
Please state the value as a number alone, without comment.

molecule	net action potential response
CC(C)=CCC/C(C)=C/C=O [Citral (E/Z mix)]	0.5

// molecule C=C1[C@@H]2CC[C@@H](C2)C1(C)C (racemic) [(±)-Camphene] , assay (+)-trans-4-thujanol A-neuron OSN class, net action potential response value: 1.5

// molecule CCCCCCO , assay (+)-trans-4-thujanol A-neuron OSN class, net action potential response value: 7

// molecule C=CC(=C)CCC=C(C)C , assay (+)-trans-4-thujanol A-neuron OSN class, net action potential response value: 0.5

// molecule CC[C@H]1O[C@]2(C)CCC[C@H]1O2 (racemic) [(±)-exo-Brevicomin] , assay (+)-trans-4-thujanol A-neuron OSN class, net action potential response value: 2.5

// molecule CC1=CCC2CC1C2(C)C (stereo not drawn) [(+)-α-Pinene] , assay (+)-trans-4-thujanol A-neuron OSN class, net action potential response value: 2.5

----------
test system: (5S,7S)-trans-conophthorin A-neuron OSN class; assay: net action potential response of A-neuron (blank-subtracted) (spikes/s (Hz)); higher = stronger excitation; settings: 10 µg on filter paper; neuron: A neuron (large spike amplitude)
reported metric: net action potential response
Please state the value as a number alone, without comment.

These recorded examples may help you get a feel for the data.
compound	test target	net action potential response
CC(=O)OC/C=C(\C)CCC=C(C)C [Geranyl acetate]	(5S,7S)-trans-conophthorin A-neuron OSN class	2
CCCCCCO	(5S,7S)-trans-conophthorin A-neuron OSN class	6
C[C@@H]1C(=O)C[C@H]2C[C@@H]1C2(C)C [(+)-Isopinocamphone]	(5S,7S)-trans-conophthorin A-neuron OSN class	1.33
CC(=O)OCCc1ccccc1 [2-Phenethyl acetate]	(5S,7S)-trans-conophthorin A-neuron OSN class	2
COc1ccc(C)cc1OC	(5S,7S)-trans-conophthorin A-neuron OSN class	2.67

For record CC12CCC(CC1=O)C2(C)C (racemic) [(±)-Camphor] the listed net action potential response is 5.33

For record CC/C=C\CCO the listed net action potential response is -2

----------
tested on: (5S,7S)-trans-conophthorin A-neuron OSN class; test: net action potential response of A-neuron (blank-subtracted) (spikes/s (Hz)); higher = stronger excitation; settings: 10 µg on filter paper; neuron: A neuron (large spike amplitude)
reported metric: net action potential response

These recorded examples may help you get a feel for the data.
compound	test result
CC(=O)CC/C=C(\C)CCC=C(C)C	4.67
CC1=C[C@@H](O)[C@H]2C[C@@H]1C2(C)C [(-)-trans-Verbenol]	13
OCCc1ccccc1	0
CC1(C)C2CC=C(CO)C1C2 (racemic) [(±)-Myrtenol]	-1
C=CCc1ccc(OC)c(OC)c1	4

For record C=CC(O)CCCCC (racemic) [(±)-1-Octen-3-ol] the listed net action potential response is 1.5

For record CCCCCC=O the listed net action potential response is 2.67

For record CC1=CC(C)(C)C=C(O)C1=O the listed net action potential response is -1.5

For record CC1=CCC(C(C)C)=CC1 the listed net action potential response is 3

For record CCC(C)CO (racemic) [(±)-2-Methyl-1-butanol] the listed net action potential response is 5

For record C=C(C)C1CC=C(C)C(=O)C1 (racemic) [(±)-Carvone] the listed net action potential response is 1

For record C=CC(=C)CC(O)C=C(C)C (racemic) [(±)-Ipsdienol] the listed net action potential response is -2.5

For record CCC/C=C\CO the listed net action potential response is -2

For record C[C@H]1C(=O)C[C@H]2C[C@@H]1C2(C)C [(-)-Pinocamphone] the listed net action potential response is 2

For record CCC/C=C/CO the listed net action potential response is -0.667

For record CCCCCC(O)CC (racemic) [(±)-3-Octanol] the listed net action potential response is 13

For record C=Cc1ccccc1 the listed net action potential response is 6

For record C[C@]12CCC[C@](C)(OC1)O2 (racemic) [(±)-Frontalin] the listed net action potential response is 96

For record c1ccc2c(c1)CCO2 [2,3-Dihydrobenzofuran] the listed net action potential response is 1.33

For record CC1=CCC(=C(C)C)CC1 the listed net action potential response is 4

----------
test system: myrcene A-neuron OSN class; experiment: net action potential response of A-neuron (blank-subtracted) (spikes/s (Hz)); higher = stronger excitation; details: 10 µg on filter paper; neuron: A neuron (large spike amplitude)
List of net action potential response values.
Please state the value as a number alone, without comment.

compound	net action potential response
CCC1CCC2(CCCO2)O1 (racemic) [(±)-Chalcogran]	2

Shifting focus to the compound that follows.
For record CC(=O)OC/C=C(\C)CCC=C(C)C [Geranyl acetate] the listed net action potential response is -4

----------
tested on: lanierone-responsive B-neuron OSN class (ItypOR36); assay: net action potential response of lanierone B-neuron (blank-subtracted) (spikes/s (Hz)); higher = stronger excitation; details: co-localized A-neuron class: myrcene; 10 µg on filter paper; neuron: B neuron (small spike amplitude)
Class condition met: net action potential response at least -4. Class condition not met: net action potential response below -4.

Solved entries:
compound	class
CCCCCC(O)CC (racemic) [(±)-3-Octanol]	condition not met
CC1(C)C2CC=C(CO)C1C2 (racemic) [(±)-Myrtenol]	condition not met
C[C@@H]1C(=O)C[C@H]2C[C@@H]1C2(C)C [(+)-Isopinocamphone]	condition met
C=Cc1ccc(OC)cc1	condition met

Query :: Check this compound for net action potential response at or above -4: C[C@H]1C(=O)C[C@H]2C[C@@H]1C2(C)C [(-)-Pinocamphone]
Result :: condition met

Query :: Check this compound for net action potential response at or above -4: CC(=O)OC/C=C(\C)CCC=C(C)C [Geranyl acetate]
Result :: condition met

Query :: Check this compound for net action potential response at or above -4: C[C@]12CCC[C@](C)(OC1)O2 (racemic) [(±)-Frontalin]
Result :: condition met

Query :: Check this compound for net action potential response at or above -4: CCc1ccc(O)c(OC)c1
Result :: condition not met

Query :: Check this compound for net action potential response at or above -4: COc1ccc(C)cc1OC
Result :: condition met
